Test system: U-251
Assay: NCI tumour cell line growth inhibition, 48 h
The source made the active and inactive calls. Rule as the data show it: active = GI50 up to about 1.1 µM and inactive = higher.
Form entry, call: pick from active, inactive

- COMPOUND: "COc1ccc(OC)c2c(/C=C/c3ccc(N(C)C)cc3)ccnc12"
  DISCRETE_LABEL: "inactive"
- COMPOUND: "O=C(CSc1nc(O)nc2[nH]cnc12)Nc1ccccc1"
  DISCRETE_LABEL: "inactive"
- COMPOUND: "Cn1sc2ccccc2c1=S"
  DISCRETE_LABEL: "inactive"
- COMPOUND: "COC(=O)/C=C(\\C(=O)OC)C1C(=O)Oc2c(C)c(=O)c3ccccc3n21 (stereo not given)"
  DISCRETE_LABEL: "inactive"
- COMPOUND: "O=C1C(Cl)=C(N2CCOCC2)C(=O)c2c(O)ccc(O)c21"
  DISCRETE_LABEL: "active"

Here's the next entry for you.
[Q] Which outcome did this test record for the compound COc1nc(NC2OCC(OC(C)=O)C(OC(C)=O)C2OC(C)=O)c(-c2csc(N)n2)c(=O)n1C (stereo not given) ?
[A] inactive

====

System: CCRF-CEM
Assay: NCI tumour cell line growth inhibition, 48 h
The source made the active and inactive calls. Rule as the data show it: active = GI50 up to about 1.1 µM and inactive = higher.
Can you tell me GI50 for the items I'm about to list?

Solved entries:
- COMPOUND: "O=C1C2CCN(CC2)C1CN1CCOCC1 (stereo unspecified)"
  ASSAY_METRIC: "GI50"
  EXPERIMENTAL_RESULT: "6.98 µM (inactive)"
- COMPOUND: "COc1ccc2[nH]c3c(C)c4cc[n+](C)cc4c(C)c3c2c1"
  ASSAY_METRIC: "GI50"
  EXPERIMENTAL_RESULT: "1.72 µM (inactive)"
- COMPOUND: "COC(=O)/C=C(\\C(=O)OC)C1C(=O)Oc2c(C)c(=O)c3ccccc3n21 (stereo unspecified)"
  ASSAY_METRIC: "GI50"
  EXPERIMENTAL_RESULT: "> 100 µM (inactive)"
- COMPOUND: "CC(=O)OCc1cc2c(s1)C(=O)c1sccc1C2=O"
  ASSAY_METRIC: "GI50"
  EXPERIMENTAL_RESULT: "0.383 µM (active)"
- COMPOUND: "O=c1cc(N2CCCC2)[nH]c(=O)n1-c1cccc(Cl)c1"
  ASSAY_METRIC: "GI50"
  EXPERIMENTAL_RESULT: "> 100 µM (inactive)"

# map each compound to its GI50
1. CC(C)=CCC[C@@H](C)C1=C(O)C(=O)C(C)=C(Nc2ccccc2F)C1=O
2. Cc1cccc2c1C(=O)OC2(c1cccc2ccccc12)c1cccc2ccccc12
3. CN1C/C(=C\c2cccs2)C2=NC(=S)NC(c3cccs3)C2C1 (stereo unspecified)
4. Cc1nc2sccn2c1/C=C1/C(=O)Nc2cccc(Cl)c21
5. CN(C)CC(CN(C)C)c1ccccn1
6. CN(C)CCN1CCc2c([nH]c3ccccc23)C1c1cccnc1 (stereo unspecified)

[A]
1: 2.39 µM (inactive); 2: > 100 µM (inactive); 3: 19.7 µM (inactive); 4: > 100 µM (inactive); 5: > 100 µM (inactive); 6: > 100 µM (inactive)

====

System: NCI-H23
Experiment: NCI tumour cell line growth inhibition, 48 h
The source made the active and inactive calls. No stated cut-off is given here; in the data, active = GI50 up to about 1.1 µM and inactive = higher.
Form entry, call: pick from active, inactive

- COMPOUND: "COC(=O)C1=C(C)N(NC(=O)OC(C)(C)C)C(=O)C1=P(c1ccccc1)(c1ccccc1)c1ccccc1"
  TARGET_UNDER_TEST: "NCI-H23"
  DISCRETE_LABEL: "inactive"
- COMPOUND: "N#Cc1ccccc1NC(=O)C(O)C(O)C(O)C(O)C=O (stereo not given)"
  TARGET_UNDER_TEST: "NCI-H23"
  DISCRETE_LABEL: "inactive"
- COMPOUND: "C/C=C/CP(=O)(c1ccccc1)c1ccccc1"
  TARGET_UNDER_TEST: "NCI-H23"
  DISCRETE_LABEL: "inactive"
- COMPOUND: "O=C1C(c2c(O)[nH]c3ccccc23)=Nc2ccc(Br)cc21"
  TARGET_UNDER_TEST: "NCI-H23"
  DISCRETE_LABEL: "inactive"
- COMPOUND: "CN(C)CCNC(=O)c1cccc2c1Oc1cccc([N+](=O)[O-])c1O2"
  TARGET_UNDER_TEST: "NCI-H23"
  DISCRETE_LABEL: "inactive"

[Q] Which outcome did this test record for the compound COc1ccc2c3c([nH]c2c1[N+](=O)[O-])C(C)N(C)CC3 (stereo not given) ?
[A] inactive

[Q] Which outcome did this test record for the compound CC(O)(C#N)CC(O)(C(F)(F)Cl)C(F)(F)Cl (stereo not given) ?
[A] inactive

[Q] Which outcome did this test record for the compound Cc1cc(=O)oc2c(C3=NN(C=O)C(c4ccccc4)C3)c(O)ccc12 (stereo not given) ?
[A] inactive

[Q] Which outcome did this test record for the compound C/C(=N\Nc1nc2cc(C(F)(F)F)ccc2s1)c1ccccn1 ?
[A] active

[Q] Which outcome did this test record for the compound CCN(CC)CCOC(c1ccccc1)c1ccccc1.CCOC(=O)Nc1ccc(S(=O)(=O)OC)cc1.CCOC(=O)Nc1ccc(S(=O)(=O)OC)cc1.Nc1ccc(C(=O)O)c(O)c1 ?
[A] inactive

====

Test system: TK-10
Assay: NCI tumour cell line growth inhibition, 48 h
Active and inactive are the calls of the source. Rule as the data show it: active = GI50 up to about 1.1 µM and inactive = higher.
Can you tell me GI50 for the items I'm about to list?

- MOLECULE: "CNCCCn1c2ccccc2c2c3c(c(-c4ccsc4)cc21)C(=O)NC3=O"
  EXPERIMENTAL_RESULT: "1.35 µM (inactive)"

# map each molecule to its GI50
1. CCN(CCCl)c1cccc(NC(=O)c2ccc(C(=O)Nc3cccc(CN(C)C)c3)cc2)c1
2. O=C1CC(c2cccc(Br)c2)n2cccc21 (stereo not given)
3. O=C1Nc2ccc([N+](=O)[O-])cc2/C1=N/NC(=S)Nc1ccc([N+](=O)[O-])cc1
4. COC(=O)C1Cc2c([nH]c3ccccc23)-c2[nH]c3ccccc3c2CC(NC(C)=O)C(=O)NCC(=O)NCC(=O)N1 (stereo not given)

[A]
0.372 µM (active)
> 100 µM (inactive)
24.7 µM (inactive)
> 100 µM (inactive)

====

Tested on: A498
Assay: NCI tumour cell line growth inhibition, 48 h
Calls of active or inactive are those of the source. No stated cut-off is given here; in the data, active = GI50 up to about 1.1 µM and inactive = higher.
ASSAY_METRIC: GI50

# map each molecule to its GI50
1. O/N=C1/C(=C/c2ccc(F)cc2)CCCC1C(NO)c1ccc(F)cc1 (configuration not stated)
2. CC(=O)Oc1ccc(C)c2c1[C@H]1CC[C@]3(C)[C@@H](OC(C)=O)CC[C@H]3[C@@H]1CC2
3. O=C(O)CCSC1=NCCN1
4. CCOC(OCC)(OCC)C(Br)CC (configuration not stated)
5. O=C(CSC1=NCCN1)c1ccccc1

[A]
> 100 µM (inactive)
17.6 µM (inactive)
> 100 µM (inactive)
> 100 µM (inactive)
> 100 µM (inactive)

# map each molecule to its GI50
1. CC(=O)[C@@]1(C)CC2(CCN(C)CC2)OC1C (some centres not stated)
2. CC(=O)OCc1cc2c(s1)C(=O)c1sccc1C2=O
3. Cc1cc(-c2ccc(C(=O)O)[nH]2)on1
4. O=C(Cc1ccccc1)Nn1c(-c2ccccc2)nc2ccccc2c1=O
5. S=C(Nc1ccccc1)Nc1ccccc1SC(/C=C/NNC1=NN=C(c2ccccc2)C(c2ccccc2)N1)c1ccccc1 (configuration not stated)

[A]
> 100 µM (inactive)
1.82 µM (inactive)
> 100 µM (inactive)
62.7 µM (inactive)
> 100 µM (inactive)

# map each molecule to its GI50
1. C=CCc1cccc2cc(C(=O)Nc3ccccn3)c(=N)oc12
2. N=C(N)NCCCC(NCc1c2ccccc2[n+]([O-])c2ccccc12)C(=O)O (configuration not stated)

[A]
> 100 µM (inactive)
98.4 µM (inactive)

====

Tested on: 786-0
Test: NCI tumour cell line growth inhibition, 48 h
Active and inactive are the calls of the source. No stated cut-off is given here; in the data, active = GI50 up to about 1.1 µM and inactive = higher.
Form entry, call: pick from active, inactive

Worked examples follow.
- COMPOUND: "c1ccc2c(c1)SCCC2NC1=NCCO1 (stereo unspecified)"
  TARGET_UNDER_TEST: "786-0"
  DISCRETE_LABEL: "inactive"
- COMPOUND: "COC(=O)C1=C(C)N2[C@H](C(=O)O)CO[C@@]2(C)[C@H](C(=O)OC)[C@H]1c1cccc([N+](=O)[O-])c1"
  TARGET_UNDER_TEST: "786-0"
  DISCRETE_LABEL: "inactive"
- COMPOUND: "CCN(CC)/C(=C\\Cl)Nc1ccccn1.[O-][Cl+3]([O-])([O-])O"
  TARGET_UNDER_TEST: "786-0"
  DISCRETE_LABEL: "inactive"
- COMPOUND: "CC(=O)[C@@]1(C)CC2(CCN(C)CC2)OC1C (stereo partly specified)"
  TARGET_UNDER_TEST: "786-0"
  DISCRETE_LABEL: "inactive"
- COMPOUND: "Cc1nc(=O)[nH]c2c1C(=O)N(C(C)C)C(NC(C)C)S2 (stereo unspecified)"
  TARGET_UNDER_TEST: "786-0"
  DISCRETE_LABEL: "inactive"

[Q] Which outcome did this test record for the compound O=C1CCC2(CC1CC(Sc1ccccc1)Sc1ccccc1)OCCO2 (stereo unspecified) ?
[A] inactive

[Q] Which outcome did this test record for the compound COc1cc2c(c(OC)c1OC)-c1ccc(SC)c(=O)cc1C(CC(=O)Oc1ccc(F)cc1)C2 (stereo unspecified) ?
[A] active

[Q] Which outcome did this test record for the compound COC(=O)c1ccccc1NCc1cc(O)ccc1O ?
[A] inactive

[Q] Which outcome did this test record for the compound OCCCCCNc1c2ccccc2nc2ccccc12 ?
[A] inactive

[Q] Which outcome did this test record for the compound Cc1cc(-c2ccc(C(=O)O)[nH]2)on1 ?
[A] inactive

[Q] Which outcome did this test record for the compound N#Cc1ccccc1NC(=O)C(O)C(O)C(O)C(O)C=O (stereo unspecified) ?
[A] inactive
